// reported self-cleavage for each item listed
B1: LINE1-full (parent)
chain: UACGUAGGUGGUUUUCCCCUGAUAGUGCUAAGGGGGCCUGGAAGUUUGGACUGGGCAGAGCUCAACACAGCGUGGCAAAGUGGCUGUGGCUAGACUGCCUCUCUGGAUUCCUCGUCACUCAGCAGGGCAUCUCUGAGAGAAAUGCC

variants of: B1; assay: self-cleavage, relative activity (ratio to wild type); higher = more cleavage; in vitro, sequencing; the parent is a self-cleaving ribozyme
assay.readout: self-cleavage

* U29C U119C | 1.45
* G7A U130C | 0.94
* U9A U45C | 0.91
* C99U U143A | 0.39
* C3G A78G | 0.6
* U20C U112C | 1.4
* U81C A138G | 1.14
* G54A U100C | 0.31
* U47G U130C | 1.24
* U26A A43U | 0.89
* U1A U119C | 1.73
* U15A U102A | 1.05
* A22G U100G | 1.75
* A59G A129U | 0.19
* U39C U119C | 1.38
* U9C A94C | 0.11
* C101A C113A | 1.41
* G48U A117G | 1.13
* C63U U115C | 0.32
* A121U A142G | 1.4
* U26C U132C | 1.62
* A6G U91C | 0.51
* U109C A142C | 1.45
* U14A U130C | 0.83
* A30G U96C | 0.45
* A59G U104C | 0.15
* U14A G114A | 0.83
* A31G U81A | 0.66
* G4U U45A | 1.04
* A69U A79U | 0.08
* U14G C118U | 1.84
* U14G C38G | 1.12
* C118U U134C | 1.13
* U47G U91C | 0.1
* U29C G127C | 1.58
* A30U C101U | 1.35
* U73C C131U | 1.73
* A57G G105A | 0.48
* U45A C63A | 0.05
* U52A A141G | 1.11
* A79U U100C | 2.92
* A6G U23G | 0.85
* A64U C111A | 0.35
* G27A A67G | 0.45
* A50G G144C | 0.83
* G4A G93A | 0.03
* A24G U102C | 1.73
* A6U A142G | 0.81
* G4C U130A | 1.1
* A42U A94G | 0.24
* A92G A107G | 0.17
* U14C G127U | 1.73
* A24U U96A | 0.07
* A94G U134A | 0.21
* G34U A136G | 1.54
* U46C U102A | 1.09
* U108C C145G | 2.49
* C28G U85A | 0.23
* G21A G114A | 2.07
* G11A U108C | 1.58
* G55A C63U | 0.13
* A65G A77G | 0.04
* G33U G74A | 0.88
* U14C U85G | 0
* A6G A94G | 0.31
* G70C A77U | 0.09
* U9A U23A | 0.36
* U20A U100C | 1.49
* A59G U143C | 0.1
* A77G U87C | 0.42
* G36C A57U | 0.07
* U39C G127A | 1.03
* A67U G88U | 0.02
* U46C C128U | 0.6
* A42G C84A | 0.15
* U13A G126U | 1.86
* G4A G10A | 1.21
* A22U U45A | 0.83
* U23A G54A | 0.96
* A2G G55U | 0.49
* A117G A140G | 1.48
* A50C C146U | 1.9
* U45C C131A | 1.67
* U47C G93U | 0.04
* C71U A138G | 1.21
* C28U A92G | 0.11
* G10U U91C | 0.44
* U1C G8A | 0.49
* U20C U143C | 1.29
* A107G C118U | 1.56
* G33U U73A | 1.38
